- tested on: T1, Marmoset Type II GnRH receptor (marmoset)
- T1 chain: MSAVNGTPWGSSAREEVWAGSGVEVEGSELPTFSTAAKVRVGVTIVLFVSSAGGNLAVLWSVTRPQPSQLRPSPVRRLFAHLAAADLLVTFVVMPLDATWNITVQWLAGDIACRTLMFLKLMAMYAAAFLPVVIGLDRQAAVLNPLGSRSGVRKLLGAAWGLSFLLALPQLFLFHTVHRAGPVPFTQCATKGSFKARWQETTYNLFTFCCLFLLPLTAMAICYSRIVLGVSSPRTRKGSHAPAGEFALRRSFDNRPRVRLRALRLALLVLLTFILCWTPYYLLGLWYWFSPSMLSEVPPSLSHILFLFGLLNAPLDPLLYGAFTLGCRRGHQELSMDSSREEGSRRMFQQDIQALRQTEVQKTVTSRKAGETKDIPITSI
- assay overview: competition with ^125I-[His^5-D-Tyr^6]GnRH I on COS-7 cells expressing the receptor (n = 3-6)
Square brackets hold non-standard residues; d marks the D form. Ends that are not written are not given here.
test readout: IC50
Put down the number, then write its unit next to it.

Return IC50 for the following binder: QHWSHGWYPG (peptide, UniProt O43555 24-33, looked up, ends and bridges not checked, mature; also called GnRH Type II; Type II GnRH) [GnRH II] 1.07 nM

Please report the measured IC50 for QHWSH[dR]WYPG (peptide, UniProt O43555 24-33, looked up, ends and bridges not checked, mature; Synthetic analogue of GnRH II; also called [D-Arg^6]GnRH Type II) [[D-Arg^6]GnRH II] 3.34 nM
